MC4R selectivity vs MC3R by entry:
# assayed_target: human MC4R (Homo sapiens, UniProt P32245)
# Construct: host or cells: HEK-293 cells stably expressing the GScAMP22F split-luciferase cAMP sensor and hMC4R, G418 selection
# Sequence (P32245 whole entry): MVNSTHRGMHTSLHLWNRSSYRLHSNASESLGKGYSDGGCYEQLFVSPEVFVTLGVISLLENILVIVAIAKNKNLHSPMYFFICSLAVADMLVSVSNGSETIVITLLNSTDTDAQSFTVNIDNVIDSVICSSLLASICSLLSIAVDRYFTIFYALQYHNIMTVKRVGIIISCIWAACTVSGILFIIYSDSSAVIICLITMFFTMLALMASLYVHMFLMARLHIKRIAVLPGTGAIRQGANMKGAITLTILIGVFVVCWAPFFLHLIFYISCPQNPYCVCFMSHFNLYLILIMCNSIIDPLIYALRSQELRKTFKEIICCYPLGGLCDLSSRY
# test_summary: split-luciferase cAMP sensor assay, agonist mode (measurement window 1), hMC4R
# Format: cell-based
Positions of bridges follow the written chain, without caps; N, C: chain ends. Non-standard residues stand in square brackets, D forms with d. Residues, ends and D or L forms follow the SMILES beside them. dPhe(4-Br) = N[C@H](Cc1ccc(Br)cc1)C(=O)O; d(hPhe) = N[C@H](CCc1ccccc1)C(=O)O; Cit = NC(=O)NCCC[C@H](N)C(=O)O
No unit in the answer, please; the number alone is enough.

{"columns": ["compound", "MC4R selectivity vs MC3R"],
 "data": [
  ["CC(=O)N[C@@H](CCCNC(=N)N)C(=O)N[C@H]1CSSC[C@@H](C(N)=O)NC(=O)[C@@H](Cc2c[nH]c3ccccc23)NC(=O)[C@H](CCCNC(N)=O)NC(=O)[C@@H](Cc2ccc(Br)cc2)NC(=O)[C@H](CCCNC(=N)N)NC(=O)[C@@H](C)NC1=O [CTX-1253] (Ac-RC[dA]R[dPhe(4-Br)][Cit][dW]C-NH2; disulfide 2-8 (inferred))", 0.53]
]}

Enquiry: // returns reported MC4R selectivity vs MC3R for input CC(=O)N[C@@H](CCCNC(=N)N)C(=O)N[C@H]1CSSC[C@@H](C(N)=O)NC(=O)[C@@H](Cc2c[nH]c3ccccc23)NC(=O)[C@H](CCCNC(=N)N)NC(=O)[C@@H](CCc2ccccc2)NC(=O)[C@H](CCCNC(=N)N)NC(=O)[C@@H](C)NC1=O [CTX-1239] (Ac-RC[dA]R[d(hPhe)]R[dW]C-NH2; disulfide 2-8)
Return: 0.3

====

# assayed_target: human MC3R (Homo sapiens)
# Construct: expressed in transfected cells; host or cells: HEK-293 cells stably expressing the GScAMP22F split-luciferase cAMP sensor (parent reporter line from Promega); MC3R clone generated in-house, G418 selection
# Sequence (P41968 whole entry): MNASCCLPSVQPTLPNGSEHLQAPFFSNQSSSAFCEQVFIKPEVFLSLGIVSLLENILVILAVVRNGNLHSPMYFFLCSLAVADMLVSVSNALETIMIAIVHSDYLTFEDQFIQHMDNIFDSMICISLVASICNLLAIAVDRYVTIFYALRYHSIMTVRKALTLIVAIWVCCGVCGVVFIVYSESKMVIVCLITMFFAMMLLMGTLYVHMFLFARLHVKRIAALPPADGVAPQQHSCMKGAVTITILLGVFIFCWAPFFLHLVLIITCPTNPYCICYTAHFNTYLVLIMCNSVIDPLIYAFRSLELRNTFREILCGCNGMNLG
# test_summary: split-luciferase cAMP sensor assay, agonist mode (measurement window 1), hMC3R
# Assay type: cell-based
# experimental_conditions: MC4R versus MC3R
# Protocol: The stable cell lines were grown and maintained in selection media consisting of Dulbecco's modified Eagle media (DMEM) with 4.5 g/l D-glucose, and 4 mM L-glutamine (Thermo Fisher Scientific, Waltham, MA), supplemented with 10% fetal bovine serum, 100 units/ml penicillin, 100 μg/ml streptomycin, 2.5 μg/ml amphotericin B, 200 μg/ml hygromycin B (for positive selection of the GScAMP22f luciferase reporter), and Geneticin™ (G418) 700 μg/ml (for MC3R or MC4R selection). […]
Positions of bridges follow the written chain, without caps; N, C: chain ends. Non-standard residues stand in square brackets, D forms with d. Residues, ends and D or L forms follow the SMILES beside them. 4Pal = N[C@@H](Cc1ccncc1)C(=O)O; Cit = NC(=O)NCCC[C@H](N)C(=O)O; Aib = CC(C)(N)C(=O)O
parameter_measured: MC4R selectivity vs MC3R

{"columns": ["compound", "result"],
 "data": [
  ["C[C@H]1NC(=O)CSC[C@@H](C(N)=O)NC(=O)[C@H](Cc2ccccc2)NC(=O)[C@H](CCCNC(=N)N)NC(=O)[C@@H](Cc2ccccc2)NC(=O)[C@H](CCCNC(=N)N)NC1=O [CTX-1657] ({CH2CO}-[dA]R[dF]RFC-NH2; thioether N-6)", 3.56]
]}

Enquiry: // returns reported MC4R selectivity vs MC3R for input CC(=O)N[C@@H](CCCNC(=N)N)C(=O)N[C@H]1CSSC[C@@H](C(N)=O)NC(=O)[C@H](Cc2ccccc2)NC(=O)[C@H](CCCNC(=N)N)NC(=O)[C@@H](Cc2ccccc2)NC(=O)[C@H](Cc2ccncc2)NC(=O)C(C)(C)NC1=O [CTX-1606] (Ac-RC[Aib][4Pal][dF]RFC-NH2; disulfide 2-8 (inferred))
Return: 0.62

Enquiry: // returns reported MC4R selectivity vs MC3R for input CC(=O)N[C@H]1CSSC[C@@H](C(N)=O)NC(=O)[C@H](Cc2c[nH]c3ccccc23)NC(=O)[C@H](CCCNC(=N)N)NC(=O)[C@@H](Cc2ccccc2)NC(=O)[C@H](CCCNC(N)=O)NC(=O)CNC1=O [CTX-1630, cyclo(Cys-Gly-Cit-D-Phe-Arg-Trp-Cys)] (Ac-CG[Cit][dF]RWC-NH2; disulfide 1-7 (inferred))
Return: 28

====

# assayed_target: human MC4R (Homo sapiens, UniProt P32245)
# Construct: host or cells: HEK-293 cells stably expressing the GScAMP22F split-luciferase cAMP sensor and hMC4R, G418 selection
# test_summary: split-luciferase cAMP sensor assay, agonist mode (measurement window 1), hMC4R
# Assay type: cell-based
# experimental_conditions: agonist mode, hMC4R stable cell line; read-out: MC4R cAMP % max activation
Positions of bridges follow the written chain, without caps; N, C: chain ends. Non-standard residues stand in square brackets, D forms with d. Residues, ends and D or L forms follow the SMILES beside them. dPhe(4-tBu) = CC(C)(C)c1ccc(C[C@@H](N)C(=O)O)cc1; dPhe(4-Br) = N[C@H](Cc1ccc(Br)cc1)C(=O)O; dNMeF = CN[C@H](Cc1ccccc1)C(=O)O
parameter_measured: Emax (%)
API: value field is a number in %; no unit string.

{"columns": ["compound", "quantity_unit", "numeric_result"],
 "data": [
  ["CC(=O)N[C@@H](CCCNC(=N)N)C(=O)N[C@H]1CSSC[C@@H](C(N)=O)NC(=O)[C@H](Cc2ccccc2)NC(=O)[C@H](CCCNC(=N)N)NC(=O)[C@@H](Cc2ccc(Br)cc2)NC(=O)[C@H](CCCNC(=N)N)NC(=O)[C@@H](C)NC1=O [CTX-1258] (Ac-RC[dA]R[dPhe(4-Br)]RFC-NH2; disulfide 2-8)", "%", 92],
  ["CC(=O)N[C@@H](CCCNC(=N)N)C(=O)N[C@H]1CSSC[C@@H](C(N)=O)NC(=O)[C@@H](Cc2c[nH]c3ccccc23)NC(=O)[C@H](CCCNC(=N)N)NC(=O)[C@@H](Cc2ccccc2)N(C)C(=O)[C@H](CCCNC(=N)N)NC(=O)[C@@H](C)NC1=O [CTX-1272] (Ac-RC[dA]R[dNMeF]R[dW]C-NH2; disulfide 2-8 (inferred))", "%", 5.3]
]}

Turning now to a further compound:
Enquiry: // returns reported Emax for input CC(=O)N[C@@H](CCCNC(=N)N)C(=O)N[C@H]1CSSC[C@@H](C(N)=O)NC(=O)[C@@H](Cc2c[nH]c3ccccc23)NC(=O)[C@H](CCCNC(=N)N)NC(=O)[C@@H](Cc2ccc(C(C)(C)C)cc2)NC(=O)[C@H](CCCNC(=N)N)NC(=O)[C@@H](C)NC1=O [CTX-1242] (Ac-RC[dA]R[dPhe(4-tBu)]R[dW]C-NH2; disulfide 2-8 (inferred))
Return: 5.8
